organism: Homo sapiens; assay: Selectivity ratio of IC50 for human recombinant HDAC4 to human recombinant HDAC6
// label = y if Ratio IC50 is not less than 20, otherwise n

# givenSmiles, groupLabel
measured = [
    ("CC(C)CN(Cc1ccccc1)Cc1ccc(/C=C/C(=O)NO)o1", "n"),
    ("CC(C)N(Cc1ccccc1)Cc1ccc(/C=C/C(=O)NO)o1", "n"),
    ("CCN(Cc1ccccc1)Cc1ccc(/C=C/C(=O)NO)o1", "y"),
    ("O=C(/C=C/c1ccc(CN(CCCOc2ccccc2)Cc2ccccc2)o1)NO", "n"),
    ("CCN(CCc1ccc2c(c1)OCO2)Cc1ccc(/C=C/C(=O)NO)o1", "y"),
    ("Cc1ccc(OCCN(CCc2ccc3c(c2)OCO3)Cc2ccc(/C=C/C(=O)NO)o2)cc1", "n"),
    ("Cc1ccc(OCCN(Cc2ccc(-c3ccccc3)cc2)Cc2ccc(/C=C/C(=O)NO)o2)cc1", "n"),
    ("CCN(Cc1ccc(-c2ccccc2)cc1)Cc1ccc(/C=C/C(=O)NO)o1", "n"),
    ("Cc1ccc(OCCN(Cc2ccccc2)Cc2ccc(/C=C/C(=O)NO)o2)cc1", "y"),
    ("CCCCN(Cc1ccccc1)Cc1ccc(/C=C/C(=O)NO)o1", "y"),
]

====

biological target: Histone deacetylase; format: protein assay, Homo sapiens; settings: hela

# givenSmiles, relationSign, IC50 [µM]
rows = [
    ("Cc1ccc(OCCCCN(Cc2ccccc2)Cc2ccc(/C=C/C(=O)NO)o2)cc1", "=", 1.31),
    ("Cc1ccc(OCCN(Cc2ccccc2)Cc2ccc(/C=C/C(=O)NO)o2)cc1", "=", 1.87),
    ("O=C(/C=C/c1ccc(CN(CCCOc2ccccc2)Cc2ccccc2)o1)NO", "=", 1.48),
    ("O=C(/C=C/c1ccc(CN(CCCCOc2ccccc2)CCc2ccc3c(c2)OCO3)o1)NO", "=", 1.57),
    ("CC(C)CN(CCc1ccc2c(c1)OCO2)Cc1ccc(/C=C/C(=O)NO)o1", ">", 2.69),
    ("O=C(/C=C/c1ccc(CN(CCOc2ccccc2)CCc2ccc3c(c2)OCO3)o1)NO", "=", 2.36),
    ("CCCCCN(CCc1ccc2c(c1)OCO2)Cc1ccc(/C=C/C(=O)NO)o1", "=", 3.49),
    ("O=C(/C=C/c1ccc(CN(CCOc2ccccc2)Cc2ccccc2)o1)NO", ">", 2.55),
    ("Cc1ccc(OCCCCN(Cc2ccc(-c3ccccc3)cc2)Cc2ccc(/C=C/C(=O)NO)o2)cc1", ">", 1.96),
    ("O=C(/C=C/c1ccc(CN(CCCOc2ccccc2)CCc2ccc3c(c2)OCO3)o1)NO", ">", 2.22),
    ("CCN(Cc1ccccc1)Cc1ccc(/C=C/C(=O)NO)o1", "=", 0.13),
    ("CC(C)CN(Cc1ccccc1)Cc1ccc(/C=C/C(=O)NO)o1", "=", 3.17),
    ("O=C(/C=C/c1ccc(CN(CCO)Cc2ccccc2)o1)NO", "=", 0.17),
    ("CCCCCCCCN(Cc1ccc(-c2ccccc2)cc1)Cc1ccc(/C=C/C(=O)NO)o1", ">", 2.17),
    ("O=C(/C=C/c1ccc(CN(CCOc2ccccc2)Cc2ccc(-c3ccccc3)cc2)o1)NO", "=", 1.21),
    ("CCN(CCc1ccc2c(c1)OCO2)Cc1ccc(/C=C/C(=O)NO)o1", "=", 2.31),
    ("O=C(/C=C/c1ccc(CN(CCO)CCc2ccc3c(c2)OCO3)o1)NO", "=", 0.4),
    ("Cc1ccc(OCCCN(Cc2ccccc2)Cc2ccc(/C=C/C(=O)NO)o2)cc1", "=", 2.54),
    ("CCCCCN(Cc1ccc(-c2ccccc2)cc1)Cc1ccc(/C=C/C(=O)NO)o1", ">", 2.39),
    ("CCCCN(CCc1ccc2c(c1)OCO2)Cc1ccc(/C=C/C(=O)NO)o1", ">", 2.69),
    ("O=C(/C=C/c1ccc(CN(CCCCOc2ccccc2)Cc2ccc(-c3ccccc3)cc2)o1)NO", ">", 2.02),
]

====

species on record: Homo sapiens; experiment: Selectivity ratio of IC50 for human recombinant HDAC1 to human recombinant HDAC6

# givenSmiles, Ratio IC50
data = [
    ("Cc1ccc(OCCN(CCc2ccc3c(c2)OCO3)Cc2ccc(/C=C/C(=O)NO)o2)cc1", 3.83),
    ("CCCN(Cc1ccccc1)Cc1ccc(/C=C/C(=O)NO)o1", 28.1),
    ("Cc1ccc(OCCN(Cc2ccc(-c3ccccc3)cc2)Cc2ccc(/C=C/C(=O)NO)o2)cc1", 3.59),
    ("CCN(Cc1ccc(-c2ccccc2)cc1)Cc1ccc(/C=C/C(=O)NO)o1", 4.11),
    ("CC(C)CN(Cc1ccccc1)Cc1ccc(/C=C/C(=O)NO)o1", 18.7),
    ("O=C(/C=C/c1ccc(CN(CCO)Cc2ccccc2)o1)NO", 29.7),
    ("Cc1ccc(OCCN(Cc2ccccc2)Cc2ccc(/C=C/C(=O)NO)o2)cc1", 10),
    ("Cc1ccc(OCCCN(Cc2ccccc2)Cc2ccc(/C=C/C(=O)NO)o2)cc1", 10.4),
    ("O=C(/C=C/c1ccc(CN(CCOc2ccccc2)Cc2ccccc2)o1)NO", 10.5),
    ("CCN(CCc1ccc2c(c1)OCO2)Cc1ccc(/C=C/C(=O)NO)o1", 16.6),
    ("CCN(Cc1ccccc1)Cc1ccc(/C=C/C(=O)NO)o1", 21.4),
    ("O=C(/C=C/c1ccc(CN(CCCOc2ccccc2)Cc2ccccc2)o1)NO", 8.21),
    ("CCCCN(Cc1ccccc1)Cc1ccc(/C=C/C(=O)NO)o1", 20),
    ("Cc1ccc(OCCCCN(Cc2ccccc2)Cc2ccc(/C=C/C(=O)NO)o2)cc1", 8.63),
    ("O=C(CCCCCCC(=O)Nc1ccc([C@H]2O[C@@H](CSc3nc(-c4ccccc4)c(-c4ccccc4)o3)C[C@@H](c3ccc(CO)cc3)O2)cc1)NO", 7),
    ("CC(C)N(Cc1ccccc1)Cc1ccc(/C=C/C(=O)NO)o1", 6.94),
]

====

Below is a list of entries, each paired with its recorded IC50 value.
target: Histone deacetylase 4 (Homo sapiens, UniProt P56524); assay: Inhibition of human recombinant HDAC4 using p53 residues 379-382 (RHKKAc) as substrate
Sequence (P56524 whole entry, the tested form may be a part): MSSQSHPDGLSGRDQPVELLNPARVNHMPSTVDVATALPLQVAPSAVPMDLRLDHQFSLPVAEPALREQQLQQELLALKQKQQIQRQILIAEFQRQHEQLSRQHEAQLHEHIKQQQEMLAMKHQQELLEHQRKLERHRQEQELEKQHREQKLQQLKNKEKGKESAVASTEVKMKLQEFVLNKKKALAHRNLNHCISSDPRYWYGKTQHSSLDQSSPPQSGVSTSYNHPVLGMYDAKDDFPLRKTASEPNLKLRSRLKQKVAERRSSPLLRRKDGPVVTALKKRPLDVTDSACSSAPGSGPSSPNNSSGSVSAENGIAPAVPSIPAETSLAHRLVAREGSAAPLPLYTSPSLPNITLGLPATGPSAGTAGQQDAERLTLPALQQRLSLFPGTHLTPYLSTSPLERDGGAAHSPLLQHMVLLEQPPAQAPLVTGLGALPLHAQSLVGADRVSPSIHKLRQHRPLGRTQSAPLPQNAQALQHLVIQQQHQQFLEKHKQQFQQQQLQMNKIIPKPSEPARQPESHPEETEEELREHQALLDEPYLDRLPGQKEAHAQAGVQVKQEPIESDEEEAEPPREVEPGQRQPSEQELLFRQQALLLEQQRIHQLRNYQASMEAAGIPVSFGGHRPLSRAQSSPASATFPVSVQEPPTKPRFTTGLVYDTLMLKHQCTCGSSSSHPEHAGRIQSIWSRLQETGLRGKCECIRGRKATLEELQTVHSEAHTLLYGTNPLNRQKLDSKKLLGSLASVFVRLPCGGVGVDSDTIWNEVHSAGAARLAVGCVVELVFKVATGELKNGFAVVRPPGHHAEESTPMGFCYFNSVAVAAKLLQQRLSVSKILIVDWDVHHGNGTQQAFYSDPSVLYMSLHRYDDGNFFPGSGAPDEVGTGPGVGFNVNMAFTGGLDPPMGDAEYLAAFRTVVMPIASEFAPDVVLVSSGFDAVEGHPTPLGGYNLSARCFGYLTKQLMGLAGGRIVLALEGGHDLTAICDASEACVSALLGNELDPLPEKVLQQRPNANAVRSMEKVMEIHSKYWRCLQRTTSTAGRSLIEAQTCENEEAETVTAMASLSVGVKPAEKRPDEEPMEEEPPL

# givenSmiles, subjectOfTest, IC50, µM
rows = [
    ("CCCCN(Cc1ccccc1)Cc1ccc(/C=C/C(=O)NO)o1", "Histone deacetylase 4 (Homo sapiens, UniProt P56524)", 7.26),
    ("Cc1ccc(OCCCCN(Cc2ccccc2)Cc2ccc(/C=C/C(=O)NO)o2)cc1", "Histone deacetylase 4 (Homo sapiens, UniProt P56524)", 12.6),
    ("Cc1ccc(OCCN(CCc2ccc3c(c2)OCO3)Cc2ccc(/C=C/C(=O)NO)o2)cc1", "Histone deacetylase 4 (Homo sapiens, UniProt P56524)", 52.5),
    ("Cc1ccc(OCCN(Cc2ccc(-c3ccccc3)cc2)Cc2ccc(/C=C/C(=O)NO)o2)cc1", "Histone deacetylase 4 (Homo sapiens, UniProt P56524)", 9.07),
]

====

assay: Intrinsic aqueous solubility of the compound at pH 7.4 by Avdeef-Tsinman potentiometric titration method; format: physicochemical; conditions: read-out: Intrinsic_solubility
Below is a list of entries, each paired with its recorded solubility value.
observedProperty: solubility (µM)

# givenSmiles, readingUnit, recordedValue
records = [
    ("CCCCN(Cc1ccccc1)Cc1ccc(/C=C/C(=O)NO)o1", "µM", 2300),
    ("O=C(/C=C/c1ccc(CN(CCO)Cc2ccccc2)o1)NO", "µM", 4000),
    ("O=C(/C=C/c1ccc(CN(CCO)Cc2ccc(-c3ccccc3)cc2)o1)NO", "µM", 3110),
    ("CCN(Cc1ccccc1)Cc1ccc(/C=C/C(=O)NO)o1", "µM", 3000),
    ("CCCCCCCCN(Cc1ccccc1)Cc1ccc(/C=C/C(=O)NO)o1", "µM", 1900),
    ("CCCN(Cc1ccccc1)Cc1ccc(/C=C/C(=O)NO)o1", "µM", 2800),
]

====

test system: HCT-116; assay: cells; format: functional, cell-based; settings: Homo sapiens, HCT-116, 48 h
observedProperty: EC50

# givenSmiles, subjectOfTest, recordedValue
records = [
    ("CCN(CCc1ccc2c(c1)OCO2)Cc1ccc(/C=C/C(=O)NO)o1", "HCT-116", "66 µM"),
    ("Cc1ccc(OCCCCN(Cc2ccccc2)Cc2ccc(/C=C/C(=O)NO)o2)cc1", "HCT-116", "5.62 µM"),
    ("O=C(/C=C/c1ccc(CN(CCOc2ccccc2)Cc2ccc(-c3ccccc3)cc2)o1)NO", "HCT-116", "9.53 µM"),
    ("O=C(/C=C/c1ccc(CN(CCO)Cc2ccccc2)o1)NO", "HCT-116", "12.1 µM"),
    ("O=C(/C=C/c1ccc(CN(CCCCOc2ccccc2)Cc2ccccc2)o1)NO", "HCT-116", "6.43 µM"),
    ("CCCN(Cc1ccccc1)Cc1ccc(/C=C/C(=O)NO)o1", "HCT-116", "24.9 µM"),
    ("CCCCCCCCN(Cc1ccc(-c2ccccc2)cc1)Cc1ccc(/C=C/C(=O)NO)o1", "HCT-116", "10.4 µM"),
    ("CCCCCCCCN(Cc1ccccc1)Cc1ccc(/C=C/C(=O)NO)o1", "HCT-116", "0.47 µM"),
    ("O=C(/C=C/c1ccc(CN(Cc2ccccc2)Cc2ccc(-c3ccccc3)cc2)o1)NO", "HCT-116", "9.01 µM"),
    ("O=C(/C=C/c1ccc(CN(CCOc2ccccc2)Cc2ccccc2)o1)NO", "HCT-116", "20.1 µM"),
    ("O=C(/C=C/c1ccc(CN(CCO)CCc2ccc3c(c2)OCO3)o1)NO", "HCT-116", "69.5 µM"),
    ("CCCCCCN(Cc1ccccc1)Cc1ccc(/C=C/C(=O)NO)o1", "HCT-116", "8.96 µM"),
    ("O=C(/C=C/c1ccc(CN(CCCCOc2ccccc2)CCc2ccc3c(c2)OCO3)o1)NO", "HCT-116", "35.9 µM"),
    ("Cc1ccc(OCCCN(Cc2ccccc2)Cc2ccc(/C=C/C(=O)NO)o2)cc1", "HCT-116", "6.02 µM"),
    ("CC(C)CN(CCc1ccc2c(c1)OCO2)Cc1ccc(/C=C/C(=O)NO)o1", "HCT-116", "17.1 µM"),
    ("Cc1ccc(OCCCCN(Cc2ccc(-c3ccccc3)cc2)Cc2ccc(/C=C/C(=O)NO)o2)cc1", "HCT-116", "2.76 µM"),
    ("O=C(/C=C/c1ccc(CN(CCCCOc2ccccc2)Cc2ccc(-c3ccccc3)cc2)o1)NO", "HCT-116", "2.76 µM"),
    ("O=C(/C=C/c1ccc(CN(CCCOc2ccccc2)Cc2ccccc2)o1)NO", "HCT-116", "7.24 µM"),
    ("CC(C)CN(Cc1ccccc1)Cc1ccc(/C=C/C(=O)NO)o1", "HCT-116", "26.3 µM"),
    ("Cc1ccc(OCCCN(Cc2ccc(-c3ccccc3)cc2)Cc2ccc(/C=C/C(=O)NO)o2)cc1", "HCT-116", "2.22 µM"),
    ("CCCN(CCc1ccc2c(c1)OCO2)Cc1ccc(/C=C/C(=O)NO)o1", "HCT-116", "15.9 µM"),
    ("CC(C)N(Cc1ccccc1)Cc1ccc(/C=C/C(=O)NO)o1", "HCT-116", "22.7 µM"),
    ("Cc1ccc(OCCN(CCc2ccc3c(c2)OCO3)Cc2ccc(/C=C/C(=O)NO)o2)cc1", "HCT-116", "28.5 µM"),
    ("CCCCCN(CCc1ccc2c(c1)OCO2)Cc1ccc(/C=C/C(=O)NO)o1", "HCT-116", "74.8 µM"),
    ("CCCCCN(Cc1ccc(-c2ccccc2)cc1)Cc1ccc(/C=C/C(=O)NO)o1", "HCT-116", "8.23 µM"),
    ("CCN(Cc1ccccc1)Cc1ccc(/C=C/C(=O)NO)o1", "HCT-116", "6.37 µM"),
]
